Can you tell me IC50 for the items I'm about to list?
system: MDA-MB-231; experiment: Antiproliferative activity against human MDA-MB-231 cells after 48 hrs by MTT assay; type: functional, cell-based; settings: MDA-MB-231, 48 h
Please give a number only; it is taken to be in µM.

Query string: Given the molecule `C[C@]12CCc3ncccc3C1=CC[C@@H]1[C@@H]2CC[C@@]2(C)[C@H]1CC[C@@]2(O)Cc1ccccn1` , what is its reported IC50?
Result string: 44.5

Query string: // query: `C[C@]12CC[C@H]3[C@@H](CC[C@H]4c5cccnc5CC[C@@]43C)[C@@H]1CC(=O)OC2`
Result string: 9.13

Query string: One more molecule: `C[C@]12CCc3ncccc3C1=CC[C@@H]1[C@@H]2CC[C@]2(C)/C(=C/c3ccccn3)CC[C@@H]12`
Result string: 87.4

// provenance: ChEMBL document CHEMBL4257507
